test-system: Kv1.6 (Rattus norvegicus, UniProt P17659)
Sequence (P17659 whole entry): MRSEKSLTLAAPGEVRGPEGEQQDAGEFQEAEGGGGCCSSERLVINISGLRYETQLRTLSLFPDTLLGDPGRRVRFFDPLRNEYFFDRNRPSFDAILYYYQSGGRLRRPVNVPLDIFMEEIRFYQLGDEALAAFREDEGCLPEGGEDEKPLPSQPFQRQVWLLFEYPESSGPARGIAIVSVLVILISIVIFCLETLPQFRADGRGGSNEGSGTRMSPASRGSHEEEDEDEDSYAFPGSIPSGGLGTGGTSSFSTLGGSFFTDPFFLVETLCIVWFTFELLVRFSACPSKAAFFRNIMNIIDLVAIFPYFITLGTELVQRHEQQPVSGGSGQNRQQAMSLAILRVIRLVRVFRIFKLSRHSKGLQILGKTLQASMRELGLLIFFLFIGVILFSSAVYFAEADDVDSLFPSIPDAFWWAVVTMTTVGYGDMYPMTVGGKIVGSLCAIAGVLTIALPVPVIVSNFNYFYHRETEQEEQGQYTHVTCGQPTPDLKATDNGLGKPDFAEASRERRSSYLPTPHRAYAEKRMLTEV
method-description: Inhibition of recombinant rat Kv1.6 expressed in HEK293 cells at 10 uM at -90 mV holding potential by whole cell patch clamp Qpatch method relative to control
Format: cell-based
applied-conditions: HEK293 cells expressing recombinant rat Kv1.6
inhibition at 10 µM reference
Could you give me the number in %? Just the number is fine.

Problem: Notebook entry, Kv1.6 (Rattus norvegicus, UniProt P17659) assay: inhibition at 10 µM of Cc1ccc(C(c2ccc(C)cc2)(c2ccc(C(=O)NCCCCN)[nH]2)c2ccc(C(=O)NCCCCN)[nH]2)cc1.Cl.Cl = ?
Solution: 4

Problem: Here is the next molecule: Cc1ccc(C(c2ccc(C)cc2)(c2ccc(C(=O)NCCN)[nH]2)c2ccc(C(=O)NCCN)[nH]2)cc1.Cl.Cl
Solution: 1

Problem: Next record, please: Cc1ccc(C(c2ccc(C)cc2)(c2ccc(C(=O)NCCCN)[nH]2)c2ccc(C(=O)NCCCN)[nH]2)cc1.Cl.Cl
Solution: 5
